As shown below, each of these molecules has a reported EC50 value.
studyTarget: LPA1 (Homo sapiens, UniProt Q92633)
Sequence (Q92633 whole entry): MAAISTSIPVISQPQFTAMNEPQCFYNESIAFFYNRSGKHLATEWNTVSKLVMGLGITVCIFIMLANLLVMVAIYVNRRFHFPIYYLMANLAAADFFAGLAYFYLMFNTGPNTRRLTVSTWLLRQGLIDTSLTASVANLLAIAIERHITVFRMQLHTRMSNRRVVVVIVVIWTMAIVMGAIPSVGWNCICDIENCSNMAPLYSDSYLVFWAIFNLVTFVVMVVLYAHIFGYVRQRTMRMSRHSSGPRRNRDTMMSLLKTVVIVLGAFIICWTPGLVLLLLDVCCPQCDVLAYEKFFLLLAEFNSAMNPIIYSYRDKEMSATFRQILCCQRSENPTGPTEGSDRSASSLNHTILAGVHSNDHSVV
protocolDetails: LPA1 Migration Assay (Oris)
appliedConditions: read-out: Cell Migration EC50

Examples with answers:
1) C[C@@H](OC(=O)Nc1c(-c2ccc(-c3ccc(Oc4ccc(F)cc4C(=O)O)cc3)cc2)cnn1C)c1ccccc1 ... 50 to 500 nM
2) C[C@@H](OC(=O)Nc1c(-c2cc3sc(-c4ccc(CC(=O)O)cc4)cc3s2)nnn1C)c1ccccc1 ... 50 to 500 nM
3) C[C@@H](OC(=O)Nc1c(-c2ccc(-c3cc4sc(C5(C(=O)O)CC5)cc4s3)cc2)nnn1C)c1ccccc1 ... 50 to 500 nM

### Prompt Fill blank: measured EC50 of the molecule `C[C@@H](OC(=O)Nc1c(-c2cc3sc(-c4ccc(CC(=O)O)cc4N)cc3s2)cnn1C)c1ccccc1` is ____.
### Response > 500 nM

###

studyTarget: LPA/S1P GPCR of interest (Homo sapiens, UniProt Q92633)
Sequence (Q92633 whole entry): as above
protocolDetails: Beta-Arrestin based assay (PathHunter)
valueKind: EC50

### Prompt Fill blank: measured EC50 of the compound `C[C@@H](OC(=O)Nc1c(-c2ccc(-c3ccc(Oc4ccc(F)cc4C(=O)O)cc3)cc2)nnn1C)c1ccccc1` is ____.
### Response < 50 nM

### Prompt Fill blank: measured EC50 of the compound `C[C@@H](OC(=O)Nc1c(-c2ccc(-c3cc(F)c(OC4(C(=O)O)CC4)c(F)c3)cc2)oc2ccccc12)c1ccccc1` is ____.
### Response 50 to 500 nM

### Prompt Fill blank: measured EC50 of the compound `C[C@@H](OC(=O)Nc1c(-c2cc3sc(-c4ccc(-c5nnc(C6(C(=O)O)CC6)o5)cc4)cc3s2)cnn1C)c1ccccc1` is ____.
### Response > 500 nM

### Prompt Fill blank: measured EC50 of the compound `Cc1nnn(-c2cc(F)c(-c3ccc(C4(C(=O)O)CCOCC4)cc3)cc2F)c1NC(=O)O[C@H](C)c1ccccc1` is ____.
### Response > 500 nM

### Prompt Fill blank: measured EC50 of the compound `C[C@@H](OC(=O)Nc1c(-c2cc3sc(-c4ccc(C5(C(=O)O)CC5)cc4C(F)(F)F)cc3s2)cnn1C)c1ccccc1` is ____.
### Response 50 to 500 nM

### Prompt Fill blank: measured EC50 of the compound `C[C@@H](OC(=O)Nc1c(-c2cc3sc(-c4ccc5scc(C6(C(=O)O)CC6)c5c4)cc3s2)cnn1C)c1ccccc1` is ____.
### Response > 500 nM

### Prompt Fill blank: measured EC50 of the compound `C[C@@H](OC(=O)Nc1c(-c2cc3sc(-c4ccc5occ(C6(C(=O)O)CC6)c5c4)cc3s2)nnn1C)c1ccccc1` is ____.
### Response > 500 nM

### Prompt Fill blank: measured EC50 of the compound `Cc1nsc(-c2cc3sc(-c4ccc5scc(CC(=O)O)c5c4)cc3s2)c1NC(=O)O[C@H](C)c1ccccc1` is ____.
### Response > 500 nM

### Prompt Fill blank: measured EC50 of the compound `C[C@@H](OC(=O)Nc1c(-c2ccc(-c3cc(F)c(Oc4ncccc4C(=O)O)c(F)c3)cc2)cnn1C)c1ccccc1Cl` is ____.
### Response < 50 nM

### Prompt Fill blank: measured EC50 of the compound `C[C@@H](OC(=O)Nc1c(-c2cc3sc(-c4ccc(-c5nnc(C6(C(=O)O)CC6)o5)cc4)cc3s2)nnn1C)c1ccccc1` is ____.
### Response > 500 nM

### Prompt Fill blank: measured EC50 of the compound `C[C@@H](OC(=O)Nc1c(-c2ccc(-c3ccc(Oc4cc(F)ccc4C(=O)O)cc3)cc2)cnn1C)c1ccccc1` is ____.
### Response < 50 nM

###

As shown below, each of these molecules has a reported pEC50 value.
studyTarget: LPA/S1P GPCR of interest (Homo sapiens, UniProt Q92633)
protocolDetails: Beta-Arrestin based assay (PathHunter)
pEC50: −log10 of the molar value.

### Prompt Query the reported pEC50 for LPA/S1P GPCR of interest (Homo sapiens, UniProt Q92633); item: `Cc1noc(-c2ccc(-c3ccc(S(=O)(=O)CC4CC4)cc3)cc2)c1NC(=O)O[C@H](C)c1ccccc1`
### Response < 6.30

###

studyTarget: LPA/S1P GPCR of interest (Homo sapiens)
protocolDetails: Beta-Arrestin based assay (PathHunter)
valueKind: EC50

### Prompt Fill blank: measured EC50 of the compound `C[C@@H](OC(=O)Nc1c(-c2cc3sc(-c4ccc(C5(C(=O)O)CC5)cc4F)cc3s2)cnn1C)c1ccccc1` is ____.
### Response < 50 nM

### Prompt Fill blank: measured EC50 of the compound `COc1cc(-c2cc3sc(-c4nnn(C)c4NC(=O)O[C@H](C)c4ccccc4)cc3s2)ccc1CC(=O)O` is ____.
### Response 50 to 500 nM

### Prompt Fill blank: measured EC50 of the compound `Cc1noc(C#Cc2ccc(NC3(C(=O)O)CC3)cc2)c1NC(=O)O[C@H](C)c1ccccc1` is ____.
### Response 50 to 500 nM

### Prompt Fill blank: measured EC50 of the compound `C[C@@H](OC(=O)Nc1c(-c2cc3sc(-c4ccc(CC(=O)O)c(F)c4F)cc3s2)cnn1C)c1ccccc1` is ____.
### Response 50 to 500 nM

### Prompt Fill blank: measured EC50 of the compound `COc1cc(-c2cc3sc(-c4cnn(C)c4NC(=O)O[C@H](C)c4ccccc4)cc3s2)c(OC)cc1CC(=O)O` is ____.
### Response > 500 nM

### Prompt Fill blank: measured EC50 of the compound `C[C@@H](OC(=O)Nc1c(-c2cc3sc(-c4ccc(C5(C(=O)O)CC5)c(Cl)c4)cc3s2)cnn1C)c1ccccc1` is ____.
### Response < 50 nM

### Prompt Fill blank: measured EC50 of the compound `C[C@H](NC(=O)C#Cc1ccc(-c2cnn(C)c2NC(=O)O[C@H](C)c2ccccc2)cc1)C(=O)O` is ____.
### Response > 500 nM

### Prompt Fill blank: measured EC50 of the compound `Cc1noc(-c2cc(F)c(-c3ccc(Oc4ccccc4C(=O)O)cc3)cc2F)c1NC(=O)O[C@H](C)c1ccccc1` is ____.
### Response < 50 nM

###

studyTarget: LPA/S1P GPCR of interest (Homo sapiens, UniProt Q92633)
protocolDetails: Beta-Arrestin based assay (PathHunter)
As shown below, each of these compounds has a reported EC50 value.

1) COc1cc(-c2cc3sc(-c4cnn(C)c4NC(=O)O[C@H](C)c4ccccc4)cc3s2)ccc1CC(=O)O ... 50 to 500 nM
2) C[C@@H](OC(=O)Nc1c(-c2ccc(-c3ccc(OC4(C(=O)O)CC4)cc3)cc2)oc2ccccc12)c1ccccc1 ... 50 to 500 nM
3) Cc1nsc(-c2cc3sc(-c4ccc5[nH]cc(CC(=O)O)c5c4)cc3s2)c1NC(=O)O[C@H](C)c1ccccc1 ... > 500 nM

### Prompt Fill blank: measured EC50 of the compound `CCOc1cc(CC(=O)O)ccc1-c1cc2sc(-c3cnn(C)c3NC(=O)O[C@H](C)c3ccccc3)cc2s1` is ____.
### Response > 500 nM

### Prompt Fill blank: measured EC50 of the compound `C[C@@H](OC(=O)Nc1c(-c2cc3sc(-c4ccc(CC(=O)O)s4)cc3s2)cnn1C)c1ccccc1` is ____.
### Response 50 to 500 nM

### Prompt Fill blank: measured EC50 of the compound `C[C@@H](OC(=O)Nc1c(-c2ccc(-c3cc(F)c(Oc4ncccc4C(=O)O)c(F)c3)cc2)nnn1C)c1ccccc1` is ____.
### Response < 50 nM

### Prompt Fill blank: measured EC50 of the compound `Cc1noc(-c2ccc(-c3cc(F)c(Oc4ccncc4C(=O)O)c(F)c3)cc2)c1NC(=O)O[C@H](C)c1ccccc1` is ____.
### Response < 50 nM

### Prompt Fill blank: measured EC50 of the compound `Cc1nsc(-c2cc3sc(-c4ccc(C5(C(=O)O)CC5)cc4C(F)(F)F)cc3s2)c1NC(=O)O[C@H](C)c1ccccc1` is ____.
### Response > 500 nM

### Prompt Fill blank: measured EC50 of the compound `Cc1nsc(-c2cc3sc(-c4ccc(C5(C(=O)O)CC5)cc4)cc3s2)c1NC(=O)O[C@H](C)c1ccccc1` is ____.
### Response < 50 nM

### Prompt Fill blank: measured EC50 of the compound `C[C@@H](NC(=O)C#Cc1ccc(-c2cnn(C)c2NC(=O)O[C@H](C)c2ccccc2)cc1)C(=O)O` is ____.
### Response > 500 nM

###

As shown below, each of these compounds has a reported pEC50 value.
studyTarget: LPA/S1P GPCR of interest (Homo sapiens, UniProt Q92633)
protocolDetails: Beta-Arrestin based assay (PathHunter)
pEC50: −log10 of the molar value.

1) Cc1nsc(-c2cc3sc(-c4ccc(C5(C(=O)O)CC5)cc4Cl)cc3s2)c1NC(=O)O[C@H](C)c1ccccc1 ... 6.30 to 7.30
2) C[C@@H](OC(=O)Nc1c(-c2ccc(-c3ccc(C4(C(=O)O)CC4)cc3)cc2)oc2ccccc12)c1ccccc1 ... > 7.30

Now look at this one.
### Prompt Fill blank: measured pEC50 of the compound `C[C@@H](OC(=O)Nc1c(-c2cc3sc(-c4ccc(CC(=O)O)c(S(C)(=O)=O)c4)cc3s2)cnn1C)c1ccccc1` is ____.
### Response < 6.30
